assay: Toxicity in Artemia salina (brine shrimp) assessed as death rate after 1.5 days (reference value: 5%); assay type: organism-based; details: in vivo, read-out: Activity
Output yes for mortality at 36 h not less than 30%; output no otherwise.

compound	group
O=C1C=C[C@H]2O[C@@H](c3ccccc3)[C@H](O)[C@H]2O1	yes
O=C1C=C[C@@H]2O[C@H](c3ccccc3)[C@@H](O)[C@@H]2O1	yes
O=C1C=C[C@H]2O[C@H](c3ccccc3)[C@@H](O)[C@@H]2O1	yes
O=C1C=C[C@H]2O[C@H](c3ccccc3)[C@@H](O)[C@H]2O1	no
O=C1C=C[C@H]2O[C@H](c3ccccc3)[C@H](O)[C@@H]2O1	yes
O=C1C=C[C@@H]2O[C@H](c3ccccc3)[C@H](O)[C@@H]2O1 [(+)-ISOALTHOLACTONE]	no

---

test system: Lactuca sativa; experiment: Inhibition of Lactuca sativa (lettuce) seed germination assessed as elongation of root by measuring germination rate (reference value: 75%); type: functional
Output 1.0 for inhibition (INH) not less than 50%; output 0.0 otherwise.

molecule	group
O=C1C=C[C@H]2O[C@H](c3ccccc3)[C@@H](O)[C@@H]2O1	1.0
O=C1C=C[C@H]2O[C@@H](c3ccccc3)[C@H](O)[C@H]2O1	0.0
O=C1C=C[C@H]2O[C@H](c3ccccc3)[C@@H](O)[C@H]2O1	1.0
O=C1C=C[C@H]2O[C@H](c3ccccc3)[C@H](O)[C@@H]2O1	1.0
O=C1C=C[C@@H]2O[C@H](c3ccccc3)[C@H](O)[C@@H]2O1 [(+)-ISOALTHOLACTONE]	0.0
